meta.source: patent US11802127B2

Assay: MDR1 LLC-PK1 and BCRP MDCKII Permeability Assay: permeability coefficient (Papp)
Type: in vitro ADME
Conditions: MDCK, test article 1 μM, 37° C.
Known Papp at 2 h, 1 μM of a selection of compounds
Express your answer in ×10⁻⁶ cm/s, writing the number without its unit.

Prompt: Name the recorded Papp at 2 h, 1 μM for Cn1c(Nc2ccc(Br)cc2F)c2c(cc1=O)CCN(OCCO)C2=O [Example 7] .
Completion: 34.5

Prompt: Do the same for CC1CN(OCCO)C(=O)c2c1cc(=O)n(C)c2Nc1ccc(Br)cc1F (centres unmarked) [Example 68] please
Completion: 18.7

Prompt: Do the same for Cc1c2c(c(Nc3ccc(C4CC4)cc3F)n(C)c1=O)C(=O)NCC2 [Example 57] please
Completion: 31.8

Prompt: Do the same for CCON1CCc2cc(=O)n(C)c(Nc3ccc(Br)cc3F)c2C1=O [Example 3] please
Completion: 46.2

Prompt: Do the same for Cn1c(Nc2ccc(Br)cc2Cl)c2c(cc1=O)CCN(OCCO)C2=O [Example 10] please
Completion: 26.5

Prompt: Do the same for Cc1c2c(c(Nc3ccc(I)cc3F)n(C)c1=O)C(=O)NCC2 [Example 48] please
Completion: 16.2

Prompt: Do the same for Cn1c(Nc2ccc(I)cc2F)c2c(cc1=O)CCN(C1CC1)C2=O [Example 5] please
Completion: 27.8

Prompt: Do the same for CSc1ccc(Nc2c3c(cc(=O)n2C)C(C)CN(OCCO)C3=O)c(F)c1 (centres unmarked) [Example 69] please
Completion: 19.6

Prompt: Do the same for Cc1c2c(c(Nc3ccc(Br)cc3F)n(C)c1=O)C(=O)NCC2 [Example 47] please
Completion: 31.5

Prompt: Do the same for CSc1ccc(Nc2c3c(cc(=O)n2C)C(C)CNC3=O)c(F)c1 (centres unmarked) [Example 67] please
Completion: 28.3

Prompt: Do the same for CSc1ccc(Nc2c3c(c(C)c(=O)n2C)CCNC3=O)c(F)c1 [Example 55] please
Completion: 37.4

Prompt: Do the same for CSc1ccc(Nc2c3c(cc(=O)n2C)C(c2ccccc2)CNC3=O)c(F)c1 (centres unmarked) [Example 65] please
Completion: 12.5

---

Assay: PK (Free Brain-to-Free Plasma Ratio) (Mouse)
Assay type: in vivo
Conditions: brain and plasma, male CD-1 mice, oral gavage 10 mg/kg, sampling 2, 4, 8, 12 and 24 hours, (B/P)*(Bfu/Pfu)
Known Kp,uu (unbound brain-to-unbound plasma ratio) of a selection of molecules

- recordSmiles: "Cc1c2c(c(Nc3ccc(Br)cc3F)n(C)c1=O)C(=O)N(OCCO)CC2"
  testResult: "0.83 to 2.09"
- recordSmiles: "Cn1c(Nc2ccc(I)cc2F)c2c(cc1=O)CCN(OCCO)C2=O"
  testResult: "1.01 to 16.1"

Prompt: Name the recorded Kp,uu (unbound brain-to-unbound plasma ratio) for CSc1ccc(Nc2c3c(cc(=O)n2C)CCN(OCCO)C3=O)c(F)c1 .
Completion: 0.88 to 1.26

Prompt: Do the same for Cn1c(Nc2ccc(Br)cc2F)c2c(cc1=O)CCN(OCCO)C2=O please
Completion: 0.62 to 1.06

Prompt: Do the same for CCc1ccc(Nc2c3c(cc(=O)n2C)CCN(OCCO)C3=O)c(F)c1 please
Completion: 0.57 to 1.58

Prompt: Do the same for Cn1c(Nc2ccc(OC(F)F)cc2F)c2c(cc1=O)CCN(OCCO)C2=O please
Completion: 0.33 to 2.92
